target: human H4 receptor (Homo sapiens); construct: expressed in transfected cells; experiment: Binding Assay on Recombinant Human Histamine H4 Receptor; conditions: Table 2; [3H] histamine competition binding, membranes of SK-N-MC cells transfected with human H4 receptor; average of results
Sequence (Q9H3N8 whole entry): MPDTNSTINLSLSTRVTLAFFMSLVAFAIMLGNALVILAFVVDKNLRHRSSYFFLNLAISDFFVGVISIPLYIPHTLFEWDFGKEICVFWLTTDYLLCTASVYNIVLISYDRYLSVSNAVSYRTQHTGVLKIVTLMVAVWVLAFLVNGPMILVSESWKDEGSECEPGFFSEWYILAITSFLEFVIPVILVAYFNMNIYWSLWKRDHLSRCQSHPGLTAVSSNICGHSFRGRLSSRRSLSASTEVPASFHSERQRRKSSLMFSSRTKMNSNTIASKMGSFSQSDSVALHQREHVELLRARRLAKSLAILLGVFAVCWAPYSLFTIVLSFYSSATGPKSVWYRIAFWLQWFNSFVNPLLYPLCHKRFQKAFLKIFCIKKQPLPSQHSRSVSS
Items are presented alongside their recorded Ki.
Field format: number, assumed nM, no unit text.

Please review the following examples before continuing.
[[record]]
smiles_string = "COc1c(C2CCCC2)nc(N)nc1N1C[C@H]2CCCN[C@H]2C1"
measured_attribute = "Ki"
unit_annotation = "nM"
recorded_value = 18

[[record]]
smiles_string = "Nc1nc(C2CC2)cc(N2CCNCC2)n1"
measured_attribute = "Ki"
unit_annotation = "nM"
recorded_value = 3

[[record]]
smiles_string = "NCCNc1cc(C2Cc3ccccc3C2)nc(N)n1"
measured_attribute = "Ki"
unit_annotation = "nM"
recorded_value = 46


Here's the next entry for you.
Task: Requested read-out: Ki. Entry: `CN[C@@H]1CCN(c2cc(CC(C)C)nc(N)n2)C1`
Result: 1
